Experiment: The minimum cytotoxic concentration (MCC) reducing cell viability on WISH cells
Format: cell-based
Settings: human
Listing of recorded MCC by entry.

| molecule | operator | MCC / µg/mL |
| --- | --- | --- |
| O=c1c(Br)c(O)ccn1C1O[C@H](CO)[C@@H](O)[C@H]1O (stereo partly specified) | > | 1000 |
| Nc1ccn(C2O[C@H](CO)[C@@H](O)[C@H]2O)c(=O)c1F (stereo partly specified) | = | 400 |
| Nc1ccn([C@@H]2O[C@H](CO)[C@@H](O)[C@H]2O)c(=O)c1 | = | 400 |
| O=c1cc(O)ccn1[C@@H]1O[C@H](CO)[C@@H](O)[C@H]1O | = | 400 |
| Nc1cc(=O)n(C2O[C@H](CO)[C@@H](O)[C@H]2O)cc1F (stereo partly specified) | = | 800 |
| Nc1ccn(C2O[C@H](CO)[C@@H](O)[C@H]2O)c(=O)c1Cl (stereo partly specified) | = | 400 |
| Nc1ccn(C2O[C@H](CO)[C@@H](O)[C@H]2O)c(=O)c1Br (stereo partly specified) | = | 800 |
| Nc1ccn(C2O[C@H](CO)[C@@H](O)[C@H]2O)c(=O)c1[N+](=O)[O-] (stereo partly specified) | > | 1000 |
| Nc1c(F)cn(C2O[C@H](CO)[C@@H](O)[C@H]2O)c(=O)c1F (stereo partly specified) | = | 400 |
| O=c1c([N+](=O)[O-])c(O)ccn1C1O[C@H](CO)[C@@H](O)[C@H]1O (stereo partly specified) | = | 400 |
| O=c1c(Cl)c(O)ccn1C1O[C@H](CO)[C@@H](O)[C@H]1O (stereo partly specified) | > | 1000 |

* * *

Experiment: The antiviral index is defined as MCC/MIC
Format: ADME
Settings: read-out: Antiviral index

| molecule | selectivity ratio |
| --- | --- |
| Nc1ccn(C2O[C@H](CO)[C@@H](O)[C@H]2O)c(=O)c1F (stereo partly specified) | 308 |

* * *

Tested on: Enterovirus
Experiment: The minimum inhibitory concentration (MIC) required to inhibit rhinovirus type 34 induced cytopathic effect (CPE) on WISH cells
Format: functional
Listing of recorded MIC by entry.
propertyLabel: MIC (µg/mL)

| compound | observedMeasurement |
| --- | --- |
| Nc1ccn(C2O[C@H](CO)[C@@H](O)[C@H]2O)c(=O)c1Cl (stereo not given in full) | 53.7 |
| Nc1c(F)cn(C2O[C@H](CO)[C@@H](O)[C@H]2O)c(=O)c1F (stereo not given in full) | 28.3 |
| Nc1ccn(C2O[C@H](CO)[C@@H](O)[C@H]2O)c(=O)c1F (stereo not given in full) | 1.3 |
| Nc1ccn(C2O[C@H](CO)[C@@H](O)[C@H]2O)c(=O)c1Br (stereo not given in full) | 173 |
| Nc1ccn([C@@H]2O[C@H](CO)[C@@H](O)[C@H]2O)c(=O)c1 | 3.2 |
